- procedure text: Cytotoxicity against HAE cells by CellTiter-Glo assay
- Type: cell-based
- study conditions: human
readout name: CC50

1) CCC(CC)COC(=O)[C@H](C)N[P@](=O)(OC[C@H]1O[C@@](C#N)(c2ccc3c(N)ncnn23)[C@H](O)[C@@H]1O)Oc1ccccc1	> 10 µM

* * *

- procedure text: Antiviral activity against HCoV-NL63 infected in Rhesus macaque LLC-MK2 cells incubated for 72 hrs by RT-PCR method
- Assay type: functional, cell-based
- study conditions: Human coronavirus NL63, LLC-MK2, 72 h
pEC50: −log10 of the molar value.
Mark true for reported pEC50 of 6 or greater; mark false for anything smaller.

1. Cc1cc(/C=C/c2ccc3cc(N(C)C)ccc3[n+]2C)c(C)n1-c1ccccc1 [PYRVINIUM PAMOATE]	false
2. O[C@H]1[C@H]2c3cc4c(cc3CN3CCC(=C[C@@H]1O)[C@H]23)OCO4 [LYCORINE]	true
3. CC[C@@]1([C@H]2O[C@H]([C@H]3O[C@@](O)(CO)[C@H](C)C[C@@H]3C)C[C@H]2C)CC[C@H]([C@@]2(C)CC[C@]3(C[C@H](O)[C@@H](C)[C@@H]([C@H](C)[C@H](OC)[C@@H](C)C(=O)O)O3)O2)O1 [MONENSIN SODIUM]	false
4. COc1c(C)c2c(c(O)c1C/C=C(\C)CCC(=O)OCCN1CCOCC1)C(=O)OC2 [MYCOPHENOLATE MOFETIL]	true
5. COc1c(C)c2c(c(O)c1C/C=C(\C)CCC(=O)O)C(=O)OC2 [MYCOPHENOLIC ACID]	true
6. Nc1ccc(/N=N/c2ccccc2)c(N)n1 [PHENAZOPYRIDINE]	false

* * *

- procedure text: in vitro
- study conditions: hamster, BHK-21 cells
readout name: CC50 at 72 h (µM)

1. CC[C@H]1CN2CCc3cc(OC)c(OC)cc3[C@@H]2C[C@@H]1C[C@H]1NCCc2cc(OC)c(OC)cc21 [EMETINE]	2.69
2. O[C@H]1[C@H]2c3cc4c(cc3CN3CCC(=C[C@@H]1O)[C@H]23)OCO4 [LYCORINE]	4.37
3. COc1c(C)c2c(c(O)c1C/C=C(\C)CCC(=O)OCCN1CCOCC1)C(=O)OC2 [MYCOPHENOLATE MOFETIL]	3.43
4. COc1c(C)c2c(c(O)c1C/C=C(\C)CCC(=O)O)C(=O)OC2 [MYCOPHENOLIC ACID]	3.55

* * *

- procedure text: Selectivity index, ratio of CC50 for African green monkey Vero E6 cells to EC50 for 2019-nCoV Beta CoV/Wuhan/WIV04/2019 infected in African green monkey Vero E6 cells
- Format: toxicity, Vero C1008
- study conditions: read-out: Ratio CC50/EC50
Recorded selectivity ratio by entry
readout name: selectivity ratio

1) CC(=O)Oc1ccccc1C(=O)Nc1ncc([N+](=O)[O-])s1 [NITAZOXANIDE]	> 16.7
2) N=C(N)c1ccc2cc(OC(=O)c3ccc(N=C(N)N)cc3)ccc2c1 [NAFAMOSTAT]	> 4.4
3) NC(=O)c1nc(F)cnc1O	> 6.46
4) Nc1nc2c(ncn2CCC(CO)CO)c(=O)[nH]1 [PENCICLOVIR]	> 4.2

* * *

- procedure text: in vitro
- study conditions: hamster, BHK-21 cells
readout name: selectivity ratio

1. CC[C@H]1CN2CCc3cc(OC)c(OC)cc3[C@@H]2C[C@@H]1C[C@H]1NCCc2cc(OC)c(OC)cc21 [EMETINE]	9
2. O[C@H]1[C@H]2c3cc4c(cc3CN3CCC(=C[C@@H]1O)[C@H]23)OCO4 [LYCORINE]	29.1
3. COc1c(C)c2c(c(O)c1C/C=C(\C)CCC(=O)O)C(=O)OC2 [MYCOPHENOLIC ACID]	1.8
4. COc1c(C)c2c(c(O)c1C/C=C(\C)CCC(=O)OCCN1CCOCC1)C(=O)OC2 [MYCOPHENOLATE MOFETIL]	2.2
5. Nc1ccc(/N=N/c2ccccc2)c(N)n1 [PHENAZOPYRIDINE]	> 10

* * *

- procedure text: Cytotoxicity against African green monkey Vero E6 cells by the CCK8 assay
- Type: cell-based, Vero C1008
- study conditions: chlorocebus sabaeus
readout name: CC50

1. CC(=O)Oc1ccccc1C(=O)Nc1ncc([N+](=O)[O-])s1 [NITAZOXANIDE]	> 35.5 µM
2. N=C(N)c1ccc2cc(OC(=O)c3ccc(N=C(N)N)cc3)ccc2c1	> 100 µM
3. CCN(CC)CCCC(C)Nc1ccnc2cc(Cl)ccc12 (configuration not stated)	> 100 µM
4. NC(=O)c1ncn([C@@H]2O[C@H](CO)[C@@H](O)[C@H]2O)n1	> 400 µM
5. Nc1nc2c(ncn2CCC(CO)CO)c(=O)[nH]1	> 400 µM
6. NC(=O)c1nc(F)cnc1O	> 400 µM
7. CCC(CC)COC(=O)[C@H](C)N[P@](=O)(OC[C@H]1O[C@@](C#N)(c2ccc3c(N)ncnn23)[C@H](O)[C@@H]1O)Oc1ccccc1	100 µM

* * *

- procedure text: Cytotoxicity against African green monkey Vero E6 cells by the MTS assay
- Assay type: cell-based, Vero C1008
- study conditions: chlorocebus sabaeus
readout name: CC50 (µM)

1) CCN(CC)CCCC(C)Nc1ccnc2cc(Cl)ccc12 (stereo unspecified)	261

* * *

- procedure text: in vitro
- study conditions: rhesus monkey, LLC-MK2 cells
Recorded selectivity ratio by entry
readout name: selectivity ratio

1. O[C@H]1[C@H]2c3cc4c(cc3CN3CCC(=C[C@@H]1O)[C@H]23)OCO4 [LYCORINE]	8.11
2. CC[C@H]1CN2CCc3cc(OC)c(OC)cc3[C@@H]2C[C@@H]1C[C@H]1NCCc2cc(OC)c(OC)cc21 [EMETINE]	2.5
3. COc1c(C)c2c(c(O)c1C/C=C(\C)CCC(=O)O)C(=O)OC2 [MYCOPHENOLIC ACID]	19
4. Nc1ccc(/N=N/c2ccccc2)c(N)n1 [PHENAZOPYRIDINE]	> 9.9
5. COc1c(C)c2c(c(O)c1C/C=C(\C)CCC(=O)OCCN1CCOCC1)C(=O)OC2 [MYCOPHENOLATE MOFETIL]	13

* * *

- procedure text: Selectivity ratio of CC50 for human MRC5 cells to EC50 for HCoV-229E infected in human MRC5 cells
- Format: toxicity, cell-based
- study conditions: read-out: Ratio CC50/EC50
readout name: selectivity ratio

1) C[C@H]1O[C@@H](O[C@H]2CC[C@@]3(C)[C@@H](CC[C@]4(C)[C@@H]3C=CC3=C5CC(C)(C)CC[C@]5(CO)[C@H](O)C[C@]34C)[C@]2(C)CO)[C@H](O)[C@@H](O[C@@H]2O[C@H](CO)[C@@H](O)[C@H](O)[C@H]2O)[C@H]1O	222

Origin of measurements: ChEMBL document CHEMBL4715853
